Measurement Description: Evaluation of conversion rate to active form in buffer solution (Experimental Example 1)
Format: physicochemical
Condition Info: pH7.0, 2 hr, 37° C., 25 umol/L in buffer solution
Readout: Residual rate (%)
State the answer as a number, implicitly in %.

- Molecule: "CCNC(=O)Oc1cc(O)c2c(=O)cc(-c3ccccc3Cl)oc2c1[C@H]1CCN(C)C[C@H]1O [Comparative Example 1, reference compound]"
  Residual rate, %: 1.0

Value of Residual rate reported for the molecule CCCN(C[C@H]1CCCCN1)C(=O)Oc1cc(O)c2c(=O)cc(-c3ccccc3Cl)oc2c1[C@H]1CCN(C)C[C@H]1O [Example 6] is 16.1

Value of Residual rate reported for the molecule CN1CC[C@H](c2c(OC(=O)N(CCCC(F)(F)F)CC3CCCCN3)cc(O)c3c(=O)cc(-c4ccccc4Cl)oc23)[C@H](O)C1 (stereo partly shown) [Example 14] is 1.1

Value of Residual rate reported for the molecule CC(C)N(CC1CCCCN1)C(=O)Oc1cc(O)c2c(=O)cc(-c3ccccc3Cl)oc2c1[C@H]1CCN(C)C[C@H]1O (stereo partly shown) [Example 10] is 29.6

###

Measurement Description: Evaluation of conversion rate to active form in buffer solution (Experimental Example 1)
Type: physicochemical
Condition Info: pH7.4, 0 hr
Readout: Production rate of Alvocidib (%)
State the answer as a number, implicitly in %.

- Molecule: "CCC(=O)O[C@@H]1CN(C)CC[C@@H]1c1c(O)cc(O)c2c(=O)cc(-c3ccccc3Cl)oc12"
  Observed Value: 4.3

Value of Production rate of Alvocidib reported for the molecule C[C@H](N)C(=O)O[C@@H]1CN(C)CC[C@@H]1c1c(O)cc(O)c2c(=O)cc(-c3ccccc3Cl)oc12 [Comparative Example 7, reference compound] is 4.2

Value of Production rate of Alvocidib reported for the molecule CCOC(=O)O[C@@H]1CN(C)CC[C@@H]1c1c(O)cc(O)c2c(=O)cc(-c3ccccc3Cl)oc12 [Comparative Example 3, reference compound] is 1.1

Value of Production rate of Alvocidib reported for the molecule CNC(=O)Oc1cc(O)c2c(=O)cc(-c3ccccc3Cl)oc2c1[C@H]1CCN(C)C[C@H]1O [Comparative Example 2, reference compound] is 34.5

Value of Production rate of Alvocidib reported for the molecule CCCCCCC(=O)O[C@@H]1CN(C)CC[C@@H]1c1c(O)cc(O)c2c(=O)cc(-c3ccccc3Cl)oc12 [Comparative Example 11, reference compound] is 1.0

Value of Production rate of Alvocidib reported for the molecule CN1CC[C@H](c2c(O)cc(O)c3c(=O)cc(-c4ccccc4Cl)oc23)[C@H](OC(=O)CN)C1 [Comparative Example 8, reference compound] is 16.7

###

Measurement Description: Evaluation of conversion rate to active form in buffer solution (Experimental Example 1)
Assay type: physicochemical
Condition Info: pH5.0, 1 hr
Readout: Residual rate (%)
State the answer as a number, implicitly in %.

- Molecule: "CNC(=O)O[C@@H]1CN(C)CC[C@@H]1c1c(O)cc(O)c2c(=O)cc(-c3ccccc3Cl)oc12 [Comparative Example 5, reference compound]"
  Residual rate / %: 93.4
- Molecule: "CNCCN(C)C(=O)Oc1cc(O)c2c(=O)cc(-c3ccccc3Cl)oc2c1[C@H]1CCN(C)C[C@H]1O [Comparative Example 14, reference compound]"
  Residual rate / %: 66.8
- Molecule: "CN1CC[C@H](c2c(OC(=O)N(C)CCN)cc(O)c3c(=O)cc(-c4ccccc4Cl)oc23)[C@H](O)C1 [Comparative Example 13, reference compound]"
  Residual rate / %: 94.0
- Molecule: "C[C@H](N)C(=O)O[C@@H]1CN(C)CC[C@@H]1c1c(O)cc(O)c2c(=O)cc(-c3ccccc3Cl)oc12 [Comparative Example 7, reference compound]"
  Residual rate / %: 90.1
- Molecule: "CNC(=O)Oc1cc(O)c2c(=O)cc(-c3ccccc3Cl)oc2c1[C@H]1CCN(C)C[C@H]1O [Comparative Example 2, reference compound]"
  Residual rate / %: 45.1

--- query ---
Value of Residual rate reported for the molecule CCNC(=O)O[C@@H]1CN(C)CC[C@@H]1c1c(O)cc(O)c2c(=O)cc(-c3ccccc3Cl)oc12 [Comparative Example 4, reference compound] is 97.8
